Tgt: MERTK (UniProt Q12866)
Sequence (Q12866 whole entry, looked up): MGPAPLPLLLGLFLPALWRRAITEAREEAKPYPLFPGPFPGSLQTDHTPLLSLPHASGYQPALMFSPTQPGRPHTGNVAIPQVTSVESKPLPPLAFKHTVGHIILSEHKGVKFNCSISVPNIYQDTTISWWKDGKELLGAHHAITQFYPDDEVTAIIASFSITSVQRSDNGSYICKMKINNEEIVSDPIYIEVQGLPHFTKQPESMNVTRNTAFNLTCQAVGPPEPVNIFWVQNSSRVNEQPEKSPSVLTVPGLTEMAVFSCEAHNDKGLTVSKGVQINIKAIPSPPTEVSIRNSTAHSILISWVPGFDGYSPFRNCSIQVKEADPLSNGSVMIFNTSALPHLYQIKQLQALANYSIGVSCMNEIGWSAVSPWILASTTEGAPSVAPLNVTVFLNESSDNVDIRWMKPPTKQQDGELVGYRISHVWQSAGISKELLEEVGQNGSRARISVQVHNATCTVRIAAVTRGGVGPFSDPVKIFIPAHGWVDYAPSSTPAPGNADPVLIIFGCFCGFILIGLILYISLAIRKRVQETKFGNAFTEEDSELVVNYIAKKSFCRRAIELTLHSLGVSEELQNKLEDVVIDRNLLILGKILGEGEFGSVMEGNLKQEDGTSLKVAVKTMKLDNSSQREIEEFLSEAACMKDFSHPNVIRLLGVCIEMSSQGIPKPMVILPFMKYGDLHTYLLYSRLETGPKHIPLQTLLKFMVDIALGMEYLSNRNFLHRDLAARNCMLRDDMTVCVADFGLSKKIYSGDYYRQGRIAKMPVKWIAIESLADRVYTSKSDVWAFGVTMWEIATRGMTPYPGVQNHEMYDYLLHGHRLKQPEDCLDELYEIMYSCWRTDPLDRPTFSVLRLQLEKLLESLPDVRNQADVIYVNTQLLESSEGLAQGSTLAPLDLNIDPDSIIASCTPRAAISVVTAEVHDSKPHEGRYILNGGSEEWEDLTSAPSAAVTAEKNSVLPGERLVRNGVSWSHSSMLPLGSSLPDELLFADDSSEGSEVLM
Protocol summary: phosphorylation enrichment, bacterial display (enrichment ratio); higher = better substrate or ligand; peptides without Tyr show the background;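 also: 11-residue human phosphosite peptides and single-mutation variants displayed on the E. coli surface, counted by deep sequencing, each peptide's frequency after selection divided by its frequency in the unselected input library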;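 also: frequency after pTyr selection over input frequency; kinase dosed for 20-30% of maximal phosphorylation in three min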
Attribute measured: phosphorylation enrichment

>>> observed_value("EESREYDRLYE [PIK3R1_Y463_K459E]")
0.465
>>> observed_value("NLMPAYFKCIQ [CYP21A2_Y190_YF]")
0.539
>>> observed_value("GHMYAYDWISI [BEST1_Y227_L224M]")
7.82
>>> observed_value("LEISPYMLSGP [LRRK2_Y1718_R1723P]")
1.97
>>> observed_value("YPPTHYIRRMP [SLC4A11_Y820_V824M]")
0.447
>>> observed_value("SRPTQYSSFSC [SPEM2_Y104]")
0.619
>>> observed_value("FEEDSYSHIMA [FDPS_Y388_YF]")
0.458
>>> observed_value("DLDTDYGSGYP [RNASEH2A_Y206]")
0.554
>>> observed_value("EEQKRYYNAMK [SCN5A_Y1494_K1493R]")
0.351
>>> observed_value("GGTTMYPGIAD [ACTC1_Y308]")
0.418
>>> observed_value("VPVPGYTKLPE [SPRR3_Y146]")
0.499
>>> observed_value("HSDFQYSQRSQ [PKP2_Y168_YF]")
0.602
>>> observed_value("IFGEEYEEQPR [ZMYM2_Y1033_V1028I]")
0.451
>>> observed_value("PPTYRYERGSR [INPPL1_Y663]")
0.465
>>> observed_value("PPLMLYNPTTY [EGFR_Y270]")
0.472
>>> observed_value("KGFRGYSFDDI [TMEM230_Y110_YF]")
0.375
>>> observed_value("RLEGVYRNNID [PTEN_Y46]")
0.291
>>> observed_value("ISRDVYSTDYY [NTRK2_Y702_M697I]")
6.57
>>> observed_value("SPQAHYRLSAF [ADAMTS9_Y100_S96P]")
0.521
>>> observed_value("RAIGFYSATSK [FAM120A_Y328_YF]")
1.03
>>> observed_value("EHAGEYGAEAL [HBA1_Y25_A20E]")
0.455
>>> observed_value("MEVGQYIFVKC [CYBB_Y324]")
0.511
>>> observed_value("SVVVPYEPREV [TP53_Y220_P223R]")
0.373
>>> observed_value("FGISGYLVDSV [MAP2K3_Y214]")
0.459
>>> observed_value("MSRDVYSTDCY [NTRK2_Y702_Y706C]")
1.51
>>> observed_value("ASFSLYEPAKM [MKI67_Y340_P338S]")
0.769
>>> observed_value("EVVGRYSLHNA [MLH1_Y183_V185L]")
0.405
>>> observed_value("YSSLGYPLPEG [ZSWIM4_Y87_P89L]")
7.91
>>> observed_value("PSSNLYFRWLT [CNGA3_Y168_YF]")
4.73

Attribution: the supplement of paper PMC10065799
